Data origin, for the record: paper PMC10797628

# Test target: human 5-HT1F receptor (Homo sapiens)
# Construct: host or cells: HEK293T
# Sequence (P30939 whole entry): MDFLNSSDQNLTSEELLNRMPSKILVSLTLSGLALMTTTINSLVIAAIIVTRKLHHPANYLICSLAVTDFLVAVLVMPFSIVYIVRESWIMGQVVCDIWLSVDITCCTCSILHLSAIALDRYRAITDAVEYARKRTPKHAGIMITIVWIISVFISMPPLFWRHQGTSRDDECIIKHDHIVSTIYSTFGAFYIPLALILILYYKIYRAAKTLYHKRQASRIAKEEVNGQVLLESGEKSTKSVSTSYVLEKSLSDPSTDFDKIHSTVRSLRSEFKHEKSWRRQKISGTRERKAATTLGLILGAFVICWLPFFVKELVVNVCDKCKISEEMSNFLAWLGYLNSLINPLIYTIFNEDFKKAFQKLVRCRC
# Test name: Radioligand binding (saturation and competition), WT 5-HT1F
Give measured Ki for each item. Keep answers brief.

Before answering, review these 8 worked examples.
Compound	Ki
CN(C)[C@H]1CCc2c(cccc2-c2cccc3ccccc23)C1 [(S)-NAP]	5.37 µM
CN(C)[C@@H]1CCc2c(cccc2-c2ccccc2Cl)C1 [(R)-CPT]	> 10 µM
CN(C)[C@H]1CCc2c(cccc2-c2ccco2)C1 [(S)-FAT]	9.33 µM
CN(C)[C@@H]1CCc2c(cccc2-c2ccccc2)C1 [(R)-5-PAT]	> 10 µM
CCCN(CCC)[C@H]1CCc2cccc(O)c2C1 [(S)-8-OH-DPAT, reference compound]	> 10 µM
CN(C)[C@@H]1CCc2c(cccc2-c2ccco2)C1 [(R)-FAT]	> 10 µM
CN(C)[C@H]1CCc2c(cccc2-c2cccs2)C1 [(S)-TAT]	> 10 µM
CCCN(CCC)[C@H]1CCc2c(cccc2-c2ccccc2Cl)C1 [(S)-DCPT]	7.59 µM

Give me Ki for each of these compounds, listed below.
1. CN(C)[C@@H]1CCc2c(cccc2-c2cccc3ccccc23)C1 [(R)-NAP]
2. CN(C)[C@H]1CCc2c(cccc2-c2ccccc2Cl)C1 [(S)-CPT]
3. CN(C)[C@H]1CCc2c(cccc2-c2ccccc2)C1 [(S)-5-PAT]
4. CN(C)[C@@H]1CCc2c(cccc2-c2cccn2C)C1 [(R)-NMP]
5. CCCN(CCC)[C@@H]1CCc2c(cccc2-c2ccccc2F)C1 [(R)-DFPT]
6. CN(C)[C@@H]1CCc2c(cccc2-c2ccccc2F)C1 [(R)-FPT]

Reply |
1. > 10 µM
2. > 10 µM
3. 6.76 µM
4. > 10 µM
5. > 10 µM
6. > 10 µM

Give me Ki for each of these compounds, listed below.
1. CN(C)[C@H]1CCc2c(cccc2-c2ccccc2F)C1 [(S)-FPT]
2. CN(C)[C@@H]1CCc2c(cccc2-c2cccs2)C1 [(R)-TAT]
3. CN(C)[C@H]1CCc2c(cccc2-c2cccn2C)C1 [(S)-NMP]
4. CCCN(CCC)[C@H]1CCc2c(cccc2-c2ccccc2F)C1 [(S)-DFPT]
5. Cc1ccc(CNCC2(F)CCN(C(=O)c3ccc(F)c(Cl)c3)CC2)nc1 [NLX-112, reference compound]
6. CCCN(CCC)[C@@H]1CCc2c(cccc2-c2ccccc2Cl)C1 [(R)-DCPT]

Reply |
> 10 µM
> 10 µM
> 10 µM
8.51 µM
> 10 µM
> 10 µM
